- System: NF-κB/AP-1
- assay_remarks: NF-κB/AP-1 activity, SEAP reporter in LPS-stimulated THP-1-XBlue-MD2-CD14 cells
- Assay type: cell-based, human
- measurement_parameters: 5 μM, LPS 1 μg/mL, 24 h, vs vehicle
property_measured: Effect on NF-κB/AP-1 activity

[[record]]
molecule = "COc1cc2oc(-c3ccc(O)cc3)cc(=O)c2c(O)c1C [Compound 7, 8-Demethylsideroxylin]"
property_measured = "Effect on NF-κB/AP-1 activity"
recorded_result = "enhance it"

[[record]]
molecule = "COc1c(C)c(O)c2c(=O)cc(-c3ccc(O)cc3)oc2c1C [Compound 6, Sideroxylin]"
property_measured = "Effect on NF-κB/AP-1 activity"
recorded_result = "enhance it"


###

The following molecules each carry a recorded MIC for B. cereus ATCC 11778.
property_measured: MIC

[[record]]
molecule = "COc1ccc(-c2cc(=O)c3c(O)c(C)c(OC)c(C)c3o2)cc1 [Compound 8, Eucalyptin]"
tested_system = "B. cereus ATCC 11778"
recorded_result = "> 64 µg/mL"

[[record]]
molecule = "COc1ccc(-c2cc(=O)c3c(O)c(C)c(OC)cc3o2)cc1 [Compound 9, 8-Demethyleucalyptin]"
tested_system = "B. cereus ATCC 11778"
recorded_result = "> 64 µg/mL"

[[record]]
molecule = "COc1cc(/C=C/C(=O)O[C@H]2CC[C@]3(C)[C@H]4C=C[C@]56OC(=O)[C@@]7(CC[C@@H](C)[C@H](C)[C@H]75)CC[C@@]6(C)[C@]4(C)CC[C@H]3C2(C)C)ccc1O [Compound 12, Tereticornate A]"
tested_system = "B. cereus ATCC 11778"
recorded_result = "> 32 µg/mL"

